compounds and their reported logP[b]
Test: log P determination by HPLC on reversed-phase columns (C 18), analogous to OECD Guideline 117
Assay type: physicochemical
Settings: method [b]
Protocol: The log P values were determined analogously to OECD Guideline 117 (EC Directive 92/69/EEC) by HPLC (high-performance liquid chromatography) using reversed-phase columns (C 18), by the following methods: [a] […] Calibration is effected with solutions of a homologous series of unbranched alkan-2-ones (having 3 to 16 carbon atoms) with known log P values (log P values determined on the basis of the retention times by linear interpolation between two successive alkanones).
In your answer, state the number alone without any accompanying words.

As a guide, the following entries are already answered.
                                   compound  quantitative_result
0  Cc1cc(F)c(N2C(=O)C(C)N(C(=O)NCc3ccccc3)C2=O)cc1[S+]([O-])CC(F)(F)F (mixture of isomers) [compound 90]                 3.05
1  Cc1cc(F)c(N2C(=O)C(C)N(C(=O)NCC(C)C)C2=O)cc1SCC(F)(F)F (racemic) [compound 80]                 3.98
2  Cc1cc(F)c(N2C(=O)CN(C(=O)NC(C)C)C2=S)cc1SCC(F)(F)F [compound 5]                 3.87
3  Cc1cc(F)c(N2C(=O)C(C)N(C(=O)NCC(C)C)C2=O)cc1[S+]([O-])CC(F)(F)F (mixture of isomers) [compound 89]                 3.02
4  Cc1cc(F)c(N2C(=O)CN(C(=O)Nc3cccc(CC(F)(F)F)c3)C2=O)cc1SCC(F)(F)F [compound 37]                 4.24
5  Cc1cc(F)c(N2C(=O)CN(C(=O)N(C)C)C2=O)cc1SCC(F)(F)F [compound 130]                 2.60

Which logP[b] is reported for this compound? CCNC(=O)N1C(=O)N(c2cc([S+]([O-])CC(F)(F)F)c(C)cc2F)C(=O)C1(C)C (racemic) [compound 83]
2.70

Reference source for all entries: patent US10206398B2
